experimentSummary: in vivo
conditionDescription: male, Sprague-Dawley, rat, po
propertyLabel: Cmax (ng/mL)
Output spec: scalar in ng/mL, unitless text.

| compound | Cmax (ng/mL) |
| --- | --- |
| C[C@@H]1C(=O)O[C@H]2C[C@@]34[C@H]5C[C@@H](C(C)(C)C)[C@]36[C@@H](OC(=O)[C@@H]6O)O[C@@]4(C(=O)O5)[C@]21O [GA, ginkgolide A] | 76.3 |

Please supply the value of reported Cmax for the item "COc1cc(-c2oc3cc(O)cc(O)c3c(=O)c2O)ccc1O"
27.9

###

experimentSummary: Stability of the analytes in rat plasma QC samples (short-term, autosampler, freeze-thaw, long-term)
conditionDescription: 1 ng mL^−1, room temperature for 12 h in the autosampler after sample preparation, n = 6
propertyLabel: Autosampler stability Accuracy (%)
Expressed in %, but write only the number.

Some solved entries appear below for comparison.
| molecule | recordedNumber |
| --- | --- |
| O=c1c(O)c(-c2ccc(O)c(O)c2)oc2cc(O)cc(O)c12 | 103.73 |
| O=c1c(O)c(-c2ccc(O)cc2)oc2cc(O)cc(O)c12 | 99.17 |
| CC(C)(C)[C@]1(O)CC2OC(=O)CC23C(=O)OC2OC(=O)[C@H](O)C231 (stereo partly drawn) [BB, bilobalide] | 103.47 |

Query Autosampler stability Accuracy for "COc1cc(-c2oc3cc(O)cc(O)c3c(=O)c2O)ccc1O"
98.06

Return Autosampler stability Accuracy (reported value) for this molecule: "Cc1coc2c1C(=O)C(=O)c1c-2ccc2c1CCCC2(C)C"
102.65

Provide measured Autosampler stability Accuracy value, entry: C[C@@H]1C(=O)O[C@H]2C[C@@]34[C@H]5C[C@@H](C(C)(C)C)[C@]36[C@@H](OC(=O)[C@@H]6O)O[C@@]4(C(=O)O5)[C@]21O [GA, ginkgolide A]
97.28
